system: peripheral blood mononuclear cells (PBMC), T cells; assay: ELISpot assay, IL-5 release (SFC) after stimulation with a-synuclein epitope pools; type: cell-based, human; details: Patients Summary; PD patients; single peptide
Quantity name: IL-g Response Frequency (%)

>>> val("3521.0009 (LYVGSKTKK; listed as Homo sapiens)")
17
>>> val("3521.0046 (FMKGLSKAKE; listed as Homo sapiens)")
0
>>> val("3521.0038 (EMPSEEGYQD; listed as Homo sapiens)")
0
>>> val("3521.0036 (AGSIAAATGF; listed as Homo sapiens)")
0
>>> val("3521.0015 (KTKEQVTNV; listed as Homo sapiens)")
0
